// data source = patent US7700763B2

- TARGET: Recombinant human galectin-3 (Homo sapiens)
- Construct: made in house; host or cells: Escherichia coli
- Sequence (P17931 whole entry): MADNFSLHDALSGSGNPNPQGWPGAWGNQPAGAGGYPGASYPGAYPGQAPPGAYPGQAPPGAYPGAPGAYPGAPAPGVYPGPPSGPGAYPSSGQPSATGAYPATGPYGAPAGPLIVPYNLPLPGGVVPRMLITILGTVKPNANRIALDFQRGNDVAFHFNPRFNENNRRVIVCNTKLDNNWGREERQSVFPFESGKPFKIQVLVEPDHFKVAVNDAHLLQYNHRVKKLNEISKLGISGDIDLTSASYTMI
- TEST_SUMMARY: fluorescence polarization-based galectin-3 inhibition assay
- Assay type: binding
- CONDITION_PARAMETERS: affinity for galectin-3 calculated from test by fluorescence polarization at one tested conc.; galectin-3 1 μM, probe 0.1 μM, PBS, room temperature; read-out: Calculated Kd
READOUT_NAME: Kd (µM)
Write the number in µM without appending the unit.

Exercise: Which value of Kd has been reported for CNC(=O)c1cn([C@H]2[C@@H](O)[C@@H](CO)O[C@@H](SC)[C@@H]2O)nn1 in the records?
Solution: 230
